# experimental target: NR1a/NR2B (Rattus norvegicus, UniProt P35439+Q00960)
# Sequence (Q00960 27-1482, other chains not shown): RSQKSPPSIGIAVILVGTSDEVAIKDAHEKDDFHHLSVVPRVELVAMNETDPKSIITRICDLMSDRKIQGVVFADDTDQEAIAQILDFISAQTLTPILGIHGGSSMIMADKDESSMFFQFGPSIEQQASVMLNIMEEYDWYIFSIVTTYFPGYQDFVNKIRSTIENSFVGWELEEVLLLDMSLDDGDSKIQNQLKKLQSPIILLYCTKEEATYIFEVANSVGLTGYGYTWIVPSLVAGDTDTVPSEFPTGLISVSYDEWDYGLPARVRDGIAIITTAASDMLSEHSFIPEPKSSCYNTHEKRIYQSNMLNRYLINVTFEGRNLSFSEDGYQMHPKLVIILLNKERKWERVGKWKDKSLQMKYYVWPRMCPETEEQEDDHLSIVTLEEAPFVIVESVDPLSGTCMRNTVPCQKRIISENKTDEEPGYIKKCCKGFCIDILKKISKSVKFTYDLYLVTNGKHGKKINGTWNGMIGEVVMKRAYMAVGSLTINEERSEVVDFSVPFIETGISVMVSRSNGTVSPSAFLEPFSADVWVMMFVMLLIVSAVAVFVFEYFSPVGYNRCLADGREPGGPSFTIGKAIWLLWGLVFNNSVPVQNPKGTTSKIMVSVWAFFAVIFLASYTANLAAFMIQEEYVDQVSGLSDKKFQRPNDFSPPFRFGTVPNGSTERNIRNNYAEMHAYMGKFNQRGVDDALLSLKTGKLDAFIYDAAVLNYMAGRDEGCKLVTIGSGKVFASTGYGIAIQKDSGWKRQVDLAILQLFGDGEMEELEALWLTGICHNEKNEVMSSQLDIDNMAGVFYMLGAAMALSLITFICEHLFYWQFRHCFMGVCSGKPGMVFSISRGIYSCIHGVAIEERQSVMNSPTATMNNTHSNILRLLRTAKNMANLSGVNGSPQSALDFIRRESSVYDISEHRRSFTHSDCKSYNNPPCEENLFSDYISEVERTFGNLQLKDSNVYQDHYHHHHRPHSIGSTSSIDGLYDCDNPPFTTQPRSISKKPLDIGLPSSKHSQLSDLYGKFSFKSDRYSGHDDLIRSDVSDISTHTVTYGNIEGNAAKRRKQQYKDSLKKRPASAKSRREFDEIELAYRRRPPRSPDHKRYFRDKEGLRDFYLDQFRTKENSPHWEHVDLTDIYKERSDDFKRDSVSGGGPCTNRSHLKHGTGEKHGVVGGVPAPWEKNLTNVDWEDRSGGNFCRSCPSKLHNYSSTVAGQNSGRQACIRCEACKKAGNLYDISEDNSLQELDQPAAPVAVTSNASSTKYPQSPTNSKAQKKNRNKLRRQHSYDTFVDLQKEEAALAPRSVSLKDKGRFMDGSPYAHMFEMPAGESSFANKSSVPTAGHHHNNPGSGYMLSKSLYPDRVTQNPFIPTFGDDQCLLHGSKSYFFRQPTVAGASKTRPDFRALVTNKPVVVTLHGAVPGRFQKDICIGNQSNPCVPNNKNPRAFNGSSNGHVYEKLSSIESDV
# test details: Electrophysiological assay at NMDA receptor subunits expressed in Xenopus oocytes (two-electrode voltage clamp)
# Assay type: cell-based
# assay conditions: Table 2; head names no subunit; electrophysiological assay results; read-out: IC50
Reported pIC50 is given for each of the following compounds.
pIC50 is a log-scale quantity: -log10 of the concentration expressed in molar.

Oc1ccc([C@H]2CC[C@H](NCCOc3ccccc3)CC2)cc1 [Example 11b] = 7.70
OC[C@@H](Cc1ccccc1)N[C@H]1CC[C@@H](c2ccc(O)cc2)CC1 [Example 10a] = 4.54
Oc1ccc([C@H]2CC[C@H](NCC#Cc3ccccc3)CC2)cc1 = 7.30
O=C(CCc1ccccc1)N[C@H]1CC[C@H](c2ccc(O)cc2)CC1 = 7.15

Next:
Reported pIC50 (NR1a/NR2B (Rattus norvegicus, UniProt P35439+Q00960)) for entry `C[C@H](CCc1ccccc1)N[C@H]1CC[C@H](c2ccc(O)cc2)CC1` is 7.22
